Recorded values, source the supplement of paper PMC10307832.

- System: A-427
- Method: relative viability (nuclei count vs DMSO), 5 days (fraction); higher = more cells survive
- Condition info: first compound 8 µM
Reported values of relative viability for individual entries
Value kind: relative viability

compound="C=C1C(=O)O[C@@H](CCCCCCCC)[C@@H]1C(=O)O [C-75] + Cc1nc(NC(=O)N2CCC[C@H]2C(N)=O)sc1-c1ccnc(C(C)(C)C(F)(F)F)c1 [Alpelisib] (partner 2 µM)" subject_of_test=A-427 value_kind="relative viability" reported=1.03
compound="C=C1C(=O)O[C@@H](CCCCCCCC)[C@@H]1C(=O)O [C-75] + CC(=O)Nc1cccc(-n2c(=O)n(C3CC3)c(=O)c3c(Nc4ccc(I)cc4F)n(C)c(=O)c(C)c32)c1 [Trametinib] (partner 0.02 µM)" subject_of_test=A-427 value_kind="relative viability" reported=0.701
compound="C=C1C(=O)O[C@@H](CCCCCCCC)[C@@H]1C(=O)O [C-75] + Cc1nc(Nc2ncc(C(=O)Nc3c(C)cccc3Cl)s2)cc(N2CCN(CCO)CC2)n1 [Dasatinib] (partner 0.075 µM)" subject_of_test=A-427 value_kind="relative viability" reported=0.658

----------
- Tested on: A-427
- Method: relative viability (nuclei count vs DMSO), 5 days (fraction); higher = more cells survive
- Condition info: first compound 8 µM
Value kind: relative viability

compound="C=C1C(=O)O[C@@H](CCCCCCCC)[C@@H]1C(=O)O [C-75] + COc1cc2c(Oc3ccc(NC(=O)C4(C(=O)Nc5ccc(F)cc5)CC4)cc3F)ccnc2cc1OCCCN1CCOCC1 [Foretinib] (partner 0.25 µM)" reported=0.992
compound="C=C1C(=O)O[C@@H](CCCCCCCC)[C@@H]1C(=O)O [C-75] + C[C@]1(O)C[C@@H](c2nc(-c3ccc4ccc(-c5ccccc5)nc4c3)c3c(N)nccn32)C1 [Linsitinib] (partner 1 µM)" reported=1.09
compound="C=C1C(=O)O[C@@H](CCCCCCCC)[C@@H]1C(=O)O [C-75] + Nc1ncn([C@H]2C[C@H](O)[C@@H](CO)O2)c(=O)n1 [Decitabine] (partner 2 µM)" reported=0.512

----------
relative viability by entry:
- Test system: NCI-H727
- Method: relative viability (nuclei count vs DMSO), 5 days (fraction); higher = more cells survive
- Condition info: first compound 0.08 µM
Value kind: relative viability

molecule="C=C1C(=O)O[C@@H](CCCCCCCC)[C@@H]1C(=O)O [C-75] + O=C(c1cc(Cc2n[nH]c(=O)c3ccccc23)ccc1F)N1CCN(C(=O)C2CC2)CC1 [Olaparib] (partner 8 µM)" reported=0.69
molecule="C=C1C(=O)O[C@@H](CCCCCCCC)[C@@H]1C(=O)O [C-75] + Cc1nc(NC(=O)N2CCC[C@H]2C(N)=O)sc1-c1ccnc(C(C)(C)C(F)(F)F)c1 [Alpelisib] (partner 2 µM)" reported=0.467
molecule="C=C1C(=O)O[C@@H](CCCCCCCC)[C@@H]1C(=O)O [C-75] + CS(=O)(=O)N1CCN(Cc2cc3nc(-c4cccc5[nH]ncc45)nc(N4CCOCC4)c3s2)CC1 [Pictilisib] (partner 1 µM)" reported=0.436
molecule="Oc1nc(-c2ccc(C(F)(F)F)cc2)nc2c1CSCC2 [XAV939] + CC(C)C[C@H](NC(=O)[C@H](Cc1ccccc1)NC(=O)c1cnccn1)B(O)O [Bortezomib] (partner 0.002 µM)" reported=1.05
molecule="Oc1nc(-c2ccc(C(F)(F)F)cc2)nc2c1CSCC2 [XAV939] + Cc1nc(NC(=O)N2CCC[C@H]2C(N)=O)sc1-c1ccnc(C(C)(C)C(F)(F)F)c1 [Alpelisib] (partner 2 µM)" reported=0.656

----------
- Tested on: NCI-H727
- Method: relative viability (nuclei count vs DMSO), 5 days (fraction); higher = more cells survive
- Condition info: first compound 1.265 µM
# reported relative viability; entries follow
Value kind: relative viability

molecule="O=C(O)c1ccc(-c2c[nH]c3ncc(-c4ccccc4)cc23)cc1C1CCCC1 + Cc1nc(Nc2ncc(C(=O)Nc3c(C)cccc3Cl)s2)cc(N2CCN(CCO)CC2)n1 [Dasatinib] (partner 0.075 µM)" value_kind="relative viability" reported=0.364
molecule="O=C(O)c1ccc(-c2c[nH]c3ncc(-c4ccccc4)cc23)cc1C1CCCC1 + C[C@@H](Oc1cc(-c2cnn(C3CCNCC3)c2)cnc1N)c1c(Cl)ccc(F)c1Cl [Crizotinib] (partner 1 µM)" value_kind="relative viability" reported=0.805
molecule="O=C(O)c1ccc(-c2c[nH]c3ncc(-c4ccccc4)cc23)cc1C1CCCC1 + CC(C)C[C@H](NC(=O)[C@H](Cc1ccccc1)NC(=O)c1cnccn1)B(O)O [Bortezomib] (partner 0.002 µM)" value_kind="relative viability" reported=0.783
molecule="O=C(O)c1ccc(-c2c[nH]c3ncc(-c4ccccc4)cc23)cc1C1CCCC1 + Cc1nc(NC(=O)N2CCC[C@H]2C(N)=O)sc1-c1ccnc(C(C)(C)C(F)(F)F)c1 [Alpelisib] (partner 2 µM)" value_kind="relative viability" reported=0.49
molecule="O=C(O)c1ccc(-c2c[nH]c3ncc(-c4ccccc4)cc23)cc1C1CCCC1 + CCNC(=O)c1noc(-c2cc(C(C)C)c(O)cc2O)c1-c1ccc(CN2CCOCC2)cc1 [Luminespib] (partner 0.01 µM)" value_kind="relative viability" reported=0.281

----------
relative viability reference
- Tested on: EBC-1
- Method: relative viability (nuclei count vs DMSO), 5 days (fraction); higher = more cells survive
- Condition info: first compound 0.1265 µM
Value kind: relative viability

compound="O=C(O)c1ccc(-c2c[nH]c3ncc(-c4ccccc4)cc23)cc1C1CCCC1 + CS(=O)(=O)N1CCN(Cc2cc3nc(-c4cccc5[nH]ncc45)nc(N4CCOCC4)c3s2)CC1 [Pictilisib] (partner 1 µM)" value_kind="relative viability" reported=0.371
compound="O=C(O)c1ccc(-c2c[nH]c3ncc(-c4ccccc4)cc23)cc1C1CCCC1 + C[C@@H](Oc1cc(-c2cnn(C3CCNCC3)c2)cnc1N)c1c(Cl)ccc(F)c1Cl [Crizotinib] (partner 1 µM)" value_kind="relative viability" reported=0.217
compound="O=C(O)c1ccc(-c2c[nH]c3ncc(-c4ccccc4)cc23)cc1C1CCCC1 + CC1(C)CCC(c2ccc(Cl)cc2)=C(CN2CCN(c3ccc(C(=O)NS(=O)(=O)c4ccc(N[C@H](CCN5CCOCC5)CSc5ccccc5)c(S(=O)(=O)C(F)(F)F)c4)cc3)CC2)C1 [Navitoclax] (partner 0.5 µM)" value_kind="relative viability" reported=0.404
compound="O=C(O)c1ccc(-c2c[nH]c3ncc(-c4ccccc4)cc23)cc1C1CCCC1 + COc1cc2c(Oc3ccc(NC(=O)C4(C(=O)Nc5ccc(F)cc5)CC4)cc3F)ccnc2cc1OCCCN1CCOCC1 [Foretinib] (partner 0.25 µM)" value_kind="relative viability" reported=0.123

----------
- Tested on: NCI-H322M
- Method: relative viability (nuclei count vs DMSO), 5 days (fraction); higher = more cells survive
- Condition info: first compound 0.05 µM
# note: boundary value 0.7 maps to not satisfied; relative viability below it maps to satisfied

compound="CC1(C)CCC(c2ccc(Cl)cc2)=C(CN2CCN(c3ccc(C(=O)NS(=O)(=O)c4ccc(N[C@H](CCN5CCOCC5)CSc5ccccc5)c(S(=O)(=O)C(F)(F)F)c4)cc3)CC2)C1 [Navitoclax] + Nc1nc2[nH]cc(CCc3ccc(C(=O)N[C@@H](CCC(=O)O)C(=O)O)cc3)c2c(=O)[nH]1 [Pemetrexed] (partner 0.2 µM)" subject_of_test=NCI-H322M group=satisfied
compound="CC1(C)CCC(c2ccc(Cl)cc2)=C(CN2CCN(c3ccc(C(=O)NS(=O)(=O)c4ccc(N[C@H](CCN5CCOCC5)CSc5ccccc5)c(S(=O)(=O)C(F)(F)F)c4)cc3)CC2)C1 [Navitoclax] + CC(=O)c1c(C)c2cnc(Nc3ccc(N4CCNCC4)cn3)nc2n(C2CCCC2)c1=O [Palbociclib] (partner 0.5 µM)" subject_of_test=NCI-H322M group=satisfied
compound="CC1(C)CCC(c2ccc(Cl)cc2)=C(CN2CCN(c3ccc(C(=O)NS(=O)(=O)c4ccc(N[C@H](CCN5CCOCC5)CSc5ccccc5)c(S(=O)(=O)C(F)(F)F)c4)cc3)CC2)C1 [Navitoclax] + Cc1nc(NC(=O)N2CCC[C@H]2C(N)=O)sc1-c1ccnc(C(C)(C)C(F)(F)F)c1 [Alpelisib] (partner 2 µM)" subject_of_test=NCI-H322M group="not satisfied"
compound="CC1(C)CCC(c2ccc(Cl)cc2)=C(CN2CCN(c3ccc(C(=O)NS(=O)(=O)c4ccc(N[C@H](CCN5CCOCC5)CSc5ccccc5)c(S(=O)(=O)C(F)(F)F)c4)cc3)CC2)C1 [Navitoclax] + Cc1nc(Nc2ncc(C(=O)Nc3c(C)cccc3Cl)s2)cc(N2CCN(CCO)CC2)n1 [Dasatinib] (partner 0.075 µM)" subject_of_test=NCI-H322M group=satisfied
compound="CC1(C)CCC(c2ccc(Cl)cc2)=C(CN2CCN(c3ccc(C(=O)NS(=O)(=O)c4ccc(N[C@H](CCN5CCOCC5)CSc5ccccc5)c(S(=O)(=O)C(F)(F)F)c4)cc3)CC2)C1 [Navitoclax] + C[C@@H](Oc1cc(-c2cnn(C3CCNCC3)c2)cnc1N)c1c(Cl)ccc(F)c1Cl [Crizotinib] (partner 1 µM)" subject_of_test=NCI-H322M group="not satisfied"
